- assayProcedure: A qHTS for Small Molecule Inhibitors of Shiga Toxin; note: 0% is about no effect
- experimentalContext: Vero cells, Shiga toxin protein synthesis inhibition reporter; at 38.7 µM, stronger effect = higher value
In all, about 290,000 compounds went through this assay and about 27,000 (9.3%) were called active. What follows is part of a selection rich in actives, with near analogues and random picks from the rest.
recordedMetric: inhibition (%)

{"lineNotation": "CCCCCc1ccc(-c2cn(Cc3ccc4ccccc4c3)nn2)cc1", "resultValue": -7.01}
{"lineNotation": "CCCCCc1ccc(-c2ccc(OCC)cc2)nc1", "resultValue": 43.4}
{"lineNotation": "Cn1cnnc1SCC(=O)NNC(=O)COc1ccc(Br)cc1", "resultValue": 1.38}
{"lineNotation": "O=C(O)c1ccc(COCC(F)(F)F)cc1", "resultValue": 8.49}
{"lineNotation": "CC(=O)NCCC(=O)Nc1cc(S(=O)(=O)N2CCCCC2)ccc1Oc1cccc(C)c1", "resultValue": -10.6}
{"lineNotation": "Cc1snc(SCc2c(F)cccc2Cl)c1C#N", "resultValue": -6.99}

###

- assayProcedure: A qHTS for Small Molecule Inhibitors of Shiga Toxin; note: 0% is about no effect
- experimentalContext: Vero cells, Shiga toxin protein synthesis inhibition reporter; at 38.7 µM, stronger effect = higher value
Hit rate of the full screen: of about 290,000 compounds, about 27,000 (9.3%) were called active. Only a selection was taken, and actives are over-represented in it overall.
Reported inhibition values for a set of compounds
recordedMetric: inhibition (%)

{"lineNotation": "Cc1c(CC(=O)NCCCCCC(=O)O)c(=O)oc2cc3occ(-c4ccccc4)c3cc12", "recordedMetric": "inhibition", "resultValue": -4.34}
{"lineNotation": "COc1ccc(/C=N/NC(=O)c2ccccc2)cc1OS(=O)(=O)c1ccccc1", "recordedMetric": "inhibition", "resultValue": 59.1}
{"lineNotation": "CCCc1cc(=O)oc2cc(OCC(=O)Nc3ccc(CN4CCOCC4)cc3)c(Cl)cc12", "recordedMetric": "inhibition", "resultValue": -1.59}
{"lineNotation": "CC(C)(C)c1ccc(C(=O)N2CCN(CCNC(=O)C(=O)Nc3ccc(F)cc3)CC2)cc1", "recordedMetric": "inhibition", "resultValue": -6.99}
{"lineNotation": "CCn1cc(C(=O)OCC(=O)Nc2cccc(C)c2)c(=O)c2ccc(C)nc21", "recordedMetric": "inhibition", "resultValue": 12.3}

###

- assayProcedure: A qHTS for Small Molecule Inhibitors of Shiga Toxin; note: 0% is about no effect
- experimentalContext: Vero cells, Shiga toxin protein synthesis inhibition reporter; at 38.7 µM
Hit rate of the full screen: of about 290,000 compounds, about 27,000 (9.3%) were called active. Rule as the data show it: active = inhibition mostly above about 28% (no sharp cut-off); inactive = mostly below about 43%. The sample as a whole holds a higher share of actives than the screen did.
Outcomes: active, inactive

{"molecule": "CCN(CC)S(=O)(=O)c1ccc(NC(=O)c2cccnc2Cl)c(NC(=O)c2cccnc2Cl)c1", "assignedClass": "inactive"}
{"molecule": "O=C(Nc1ccc2c(c1)CCC2)c1ccc(Br)s1", "assignedClass": "active"}
{"molecule": "CCC1OC(c2ccc([N+](=O)[O-])cc2)=Nc2ccccc21 (stereo unspecified)", "assignedClass": "inactive"}
{"molecule": "Cc1ccc(NC(=O)CNCc2ccccn2)cc1S(=O)(=O)N(C)C", "assignedClass": "inactive"}
{"molecule": "COc1ccc(CCNS(=O)(=O)c2cc3c(cc2C)NC(=O)CO3)cc1OC", "assignedClass": "inactive"}
{"molecule": "Cc1ccc(NC(=O)CN2CCC(C(N)=O)CC2)cc1[N+](=O)[O-]", "assignedClass": "inactive"}
{"molecule": "NC(=S)N/N=C/c1ccc([N+](=O)[O-])cc1", "assignedClass": "inactive"}
{"molecule": "CC(C)C(=O)OCC(=O)Nc1ccc2c(c1)CCC2", "assignedClass": "inactive"}
{"molecule": "CCOC(=O)c1ccc(NC(=S)N2CCN(c3ccccn3)CC2)cc1", "assignedClass": "inactive"}
{"molecule": "CCN(CC)S(=O)(=O)c1cc(C(=O)Nc2ccccn2)ccc1C", "assignedClass": "active"}
{"molecule": "O=C(NC1CCCC1)c1ccc(Br)s1", "assignedClass": "inactive"}
